The entries below come with measured MIC values attached.
system: VRE; assay: Broth microdilution MIC, Example 7 (NCL812 and analogues); assay type: cell-based, Enterococcus spp.; settings: Enterococcus, VRE, 24 h, read-out: MIC (μg/ml) at 24 hours, VRE 2, VRE 2; 24 hours; duplicate lines per compound
Write the answer as a number in µg/mL, unit excluded.

# compound, target_desc, unit_abbrev, test_value
measured = [
    ("Cl.N=C(N/N=C/c1cc(O)c(O)c(O)c1)N/N=C/c1cc(O)c(O)c(O)c1 [NCL097]", "VRE", "µg/mL", 32),
    ("Cl.N=C(N/N=C/c1ccc(F)cc1)N/N=C/c1ccc(Cl)cc1 [NCL079]", "VRE", "µg/mL", 4),
    ("Cl.N=C(N/N=C/c1ccc(Cl)cc1)N/N=C/c1ccc(Cl)cc1F [NCL084]", "VRE", "µg/mL", 2),
]

MIC in this record for Cl.N=C(N/N=C/c1ccc(Cl)cc1)N/N=C/c1ccc(C(F)(F)F)cc1F [NCL078] : 4

MIC in this record for C/C(=N\NC(=N)N/N=C/c1ccc(Cl)cc1)c1ccc(C(F)(F)F)cc1.Cl [NCL080] : 4

MIC in this record for C/C(=N\NC(=N)N/N=C(\C)c1ccc(C(F)(F)F)cc1)c1ccc(Cl)cc1.Cl [NCL089] : 1

---

experiment: Bioassay ranking of the analogues tested; conditions: M + R (MRSA and VRE combined)
Hi! Could you tag entries with M + R below 10 µg/mL as t, and those at or above as f? Much appreciated.

# compound, category
measured = [
    ("Cc1ccc(/C=N/NC(=N)N/N=C/c2ccc(C)cc2)cc1.Cl", "t"),
    ("CC/C(=N\\NC(=N)N/N=C(\\CC)c1ccc(Cl)cc1O)c1ccc(Cl)cc1O", "t"),
    ("Cl.N=C(NN=Cc1ccc(F)c(F)c1)NN=Cc1ccc(F)c(F)c1", "t"),
    ("Cl.N=C(N/N=C/c1ccc(F)cc1)N/N=C/c1ccc(Cl)cc1", "t"),
    ("CC(=NNC(=N)NN=C(C)c1ccc(Cl)cc1F)c1ccc(Cl)cc1F.Cl", "t"),
    ("CC(O)Nc1cc(Cl)ccc1C=NNC(=N)NN=Cc1ccc(Cl)cc1NC(C)O.Cl (stereo not drawn)", "f"),
    ("CC(C)(C)c1ccc(C=NNC(=N)NN=Cc2ccc(C(C)(C)C)cc2)cc1.Cl", "t"),
    ("Nc1nc(N/N=C/c2ccc(C(F)(F)F)cc2)cc(N/N=C/c2ccc(C(F)(F)F)cc2)n1", "f"),
]

Now look at this one.
Below 10 µg/mL on M + R? Entry "CN(C)c1ccc(C=NNC(=N)NN=Cc2ccc(N(C)C)cc2)cc1.Cl"
f

---

The entries below come with measured isolates resistant (Kirby-Bauer disc diffusion) values attached.
tested on: S. aureus isolates (HA-MRSA, CA-MRSA, methicillin-susceptible staphylococci); experiment: Kirby-Bauer disc diffusion resistotyping, Example 4; format: cell-based, Staphylococcus aureus; settings: HA-MRSA (n = 10)
Returns: string containing the numeric result and its unit.

Completed entries (count: 4):
# compound, target_desc, test_value
data = [
    ("Cc1onc(-c2ccccc2)c1C(=O)N[C@@H]1C(=O)N2[C@@H]1SC(C)(C)[C@@H]2C(=O)O [Oxacillin]", "S. aureus isolates (HA-MRSA, CA-MRSA, methicillin-susceptible staphylococci)", "80.00%"),
    ("CN[C@H](CC(C)C)C(=O)N[C@H]1C(=O)N[C@@H](CC(N)=O)C(=O)N[C@H]2C(=O)N[C@H]3C(=O)N[C@H](C(=O)N[C@H](C(=O)O)c4cc(O)cc(O)c4-c4cc3ccc4O)[C@H](O)c3ccc(c(Cl)c3)Oc3cc2cc(c3O[C@@H]2O[C@H](CO)[C@@H](O)[C@H](O)[C@H]2O[C@H]2C[C@](C)(N)[C@H](O)[C@H](C)O2)Oc2ccc(cc2Cl)[C@H]1O [Vancomycin]", "S. aureus isolates (HA-MRSA, CA-MRSA, methicillin-susceptible staphylococci)", "0.00%"),
    ("CO[C@H]1/C=C/O[C@@]2(C)Oc3c(C)c(O)c4c(O)c(c(/C=N/N5CCN(C)CC5)c(O)c4c3C2=O)NC(=O)/C(C)=C\\C=C\\[C@H](C)[C@H](O)[C@@H](C)[C@@H](O)[C@@H](C)[C@H](OC(C)=O)[C@@H]1C [Rifampicin]", "S. aureus isolates (HA-MRSA, CA-MRSA, methicillin-susceptible staphylococci)", "10.00%"),
    ("CC[C@H]1OC(=O)[C@H](C)[C@@H](O[C@H]2C[C@@](C)(OC)[C@@H](O)[C@H](C)O2)[C@H](C)[C@@H](O[C@@H]2O[C@H](C)C[C@H](N(C)C)[C@H]2O)[C@](C)(O)C[C@@H](C)C(=O)[C@H](C)[C@@H](O)[C@]1(C)O [Erythromycin]", "S. aureus isolates (HA-MRSA, CA-MRSA, methicillin-susceptible staphylococci)", "80.00%"),
]

isolates resistant (Kirby-Bauer disc diffusion) in this record for CN(C)[C@@H]1C(O)=C(C(N)=O)C(=O)[C@@]2(O)C(O)=C3C(=O)c4c(O)cccc4[C@@](C)(O)[C@H]3C[C@@H]12 [Tetracycline] : 30.00%

isolates resistant (Kirby-Bauer disc diffusion) in this record for CCC[C@@H]1C[C@@H](C(=O)N[C@@H]([C@H]2O[C@H](SC)[C@H](O)[C@@H](O)[C@H]2O)[C@H](C)Cl)N(C)C1 [Clindamycin] : 50.00%

isolates resistant (Kirby-Bauer disc diffusion) in this record for CO[C@@]1(NC(=O)C2SC(=C(C(N)=O)C(=O)O)S2)C(=O)N2C(C(=O)O)=C(CSc3nnnn3C)CS[C@@H]21 (stereo partly drawn) [Cefotetan] : 80.00%

isolates resistant (Kirby-Bauer disc diffusion) in this record for CC1=C(C(=O)O)N2C(=O)[C@@H](NC(=O)[C@H](N)c3ccccc3)[C@H]2SC1 [Cephalexin] : 80.00%

isolates resistant (Kirby-Bauer disc diffusion) in this record for CC1(C)S[C@@H]2[C@H](NC(=O)Cc3ccccc3)C(=O)N2[C@H]1C(=O)O [Penicillin-G] : 100.00%

Origin of values: patent US10253002B2
